- System: MOLT-4 leukemia
- experiment_notes: NCI-60 one-dose screen, 48 h (100 = growth as untreated, 0 = no growth, -100 = all killed)
- stated_conditions: 10 µM unless noted
This is part of a sample that, as a whole, favours compounds with a hit. Of some 83,000 tested, about 20% had one in any assay.
Label 1 (yes) when growth is at or above 70%; otherwise label 0 (no).

>  <smiles_representation>
O=C(CCCCCCCCC(=O)Nc1cccc(C2=NCCN2)c1)Nc1cccc(C2=NCCN2)c1

>  <class>
1 (yes)

$$$$

Prompt: I'd appreciate it if you could say whether COc1ccc2c(c1)OC13Oc4cc(OC)ccc4C=C1CCCCC3=C2 has growth at least equal to 70%.
Completion: 1 (yes)

Prompt: I'd appreciate it if you could say whether C=C1C(=O)O[C@H]2[C@H]1CC/C(COC(=O)Nc1nc3ccccc3[nH]1)=C\CC[C@@]1(C)O[C@@H]21 has growth at least equal to 70%.
Completion: 0 (no)

Prompt: I'd appreciate it if you could say whether COc1ccc2nc(-c3ccc(OC)c(OC)c3)cc(-c3nnc(SCC(=O)Nc4ccc(C(C)=O)cc4)o3)c2c1 has growth at least equal to 70%.
Completion: 1 (yes)

Prompt: I'd appreciate it if you could say whether Nc1ccccc1NC(=O)c1ccc(CSc2nc(N3CCOCC3)c3cccn3n2)cc1 has growth at least equal to 70%.
Completion: 0 (no)

Prompt: I'd appreciate it if you could say whether CN1CCN(S(=O)(=O)O[C@@H]2C(=O)N(c3cc4c5ccccc5ccc4c4ccccc34)[C@H]2c2ccc(F)cn2)CC1 has growth at least equal to 70%.
Completion: 0 (no)

Prompt: I'd appreciate it if you could say whether NS(=O)(=O)c1ccc(N2Cc3cc(Cl)ccc3OC3=C2C(=O)N(CC2CCCCC2)C3=O)cc1 has growth at least equal to 70%.
Completion: 0 (no)

Prompt: I'd appreciate it if you could say whether C#Cc1ccccc1NC(=O)c1sc2nc3c(cc2c1N)CCCCC3 has growth at least equal to 70%.
Completion: 1 (yes)

Prompt: I'd appreciate it if you could say whether CCOCc1nc2ccccc2c(=O)[nH]1 has growth at least equal to 70%.
Completion: 1 (yes)

* * *

growth listing for selected molecules.
- Test system: SK-OV-3 ovarian
- experiment_notes: NCI-60 one-dose screen, 48 h (100 = growth as untreated, 0 = no growth, -100 = all killed)
- stated_conditions: 10 µM unless noted
- Experimental: Growth inhibition of the SK-OV-3 human tumor cell line is measured as a screen for anti-cancer activity. Cells are grown in 96 well plates and exposed to the test compound for 48 hours. Compounds are tested at a single concentration, which is 10^-5 M for most compounds. The reported endpoint is percent growth (GI% or GIPRCNT), where numbers from 0 - 100% represent growth inhibition, and numbers from -100% - 0 represent cell death. For example, a value of 40 represents 60% growth inhibition. […]
This is part of a sample that, as a whole, favours compounds with a hit. Of some 83,000 tested, about 20% had one in any assay. Active and inactive are the calls of the source. Rule for the calls: active = growth percent below 10; inactive = the rest.

Prompt: Supply reported growth belonging to this molecule: COc1cc(C2=NN(C(C)=O)C(c3cccc(Nc4ccnc5cc(C(F)(F)F)ccc45)c3)C2)cc(OC)c1OC (stereo unspecified)
Completion: 69.3% (inactive)

Prompt: Supply reported growth belonging to this molecule: Cc1cc(C)n(-c2nc(-c3cccs3)c(C#N)c(=O)[nH]2)n1
Completion: 90.9% (inactive)

Prompt: Supply reported growth belonging to this molecule: Cc1nnc(/N=C2\NC(=O)/C(=C/c3ccc(N(C)C)cc3)S2)s1
Completion: 72% (inactive)

Prompt: Supply reported growth belonging to this molecule: COc1ccc(NC(=O)c2ccc(Nc3ncnc4[nH]c(C)c(C)c34)cc2)cc1
Completion: 109% (inactive)

Prompt: Supply reported growth belonging to this molecule: CN(C)c1ccc(-c2ccc3[nH]c(=O)nc(-c4ccc(F)cc4)c3c2)cn1
Completion: 36.2% (inactive)

Prompt: Supply reported growth belonging to this molecule: C=C(C)[C@@H]1CC[C@]2(C(=O)O)CC[C@]3(C)[C@H](CC[C@@H]4[C@@]5(C)C[C@@H](CC#Cc6ccccc6C)C(=O)C(C)(C)[C@@H]5CC[C@]43C)[C@@H]12
Completion: 34.2% (inactive)

Prompt: Supply reported growth belonging to this molecule: CCc1ccc(OCc2ccccc2C(=O)Nc2ccc3nc(C)cc(N)c3c2)cc1
Completion: -97% (active)

Prompt: Supply reported growth belonging to this molecule: COc1cc(-c2csc(NC(=O)Nc3cc(Cl)cc(Cl)c3)n2)cc(OC)c1OC
Completion: 14.9% (inactive)
